experiment: in vitro; settings: human
Reported values of IC50 for individual entries

As a guide, the following entries are already answered.
>  <molecule>
CCOP(=O)(OCC)C(NS(=O)(=O)c1ccc(C)cc1)C(C)(OC)OC (stereo not drawn) [Compound 5c]

>  <IC50>
> 50 µM

$$$$
>  <molecule>
C=C(Oc1ccccc1)C(NS(=O)(=O)c1ccc(C)cc1)P(=O)(OCC)OCC (stereo not drawn) [Compound 12a]

>  <IC50>
> 50 µM

$$$$

Short answer for C=C(Sc1ccc(F)cc1)C(NS(=O)(=O)c1ccc(C)cc1)P(=O)(OCC)OCC (stereo not drawn) [Compound 16d] : IC50 was > 50 µM

----------
The following compounds are listed with their measured melting point values.

Sample answers from the record:
>  <compound>
C[C@@]1(OCC(F)(F)F)N[C@H]1P(=O)(c1ccccc1)c1ccccc1 (relative stereo) [Compound 7]

>  <endpoint.value>
98 to 100 °C

$$$$
>  <compound>
CC(=O)C(NS(=O)(=O)c1ccc(C)cc1)P(=O)(OC(C)C)OC(C)C (stereo not shown) [Compound 6]

>  <endpoint.value>
121 to 122 °C

$$$$
>  <compound>
COC(C)(OC)C(NS(=O)(=O)c1ccc(C)cc1)P(=O)(c1ccccc1)c1ccccc1 (stereo not shown) [Compound 5a]

>  <endpoint.value>
205 to 207 °C

$$$$
>  <compound>
C=C(Sc1ccc(C)cc1)C(NS(=O)(=O)c1ccc(C)cc1)P(=O)(OCC)OCC (stereo not shown) [Compound 16e]

>  <endpoint.value>
168 to 170 °C

$$$$
>  <compound>
C=C(Oc1ccc2ccccc2c1)C(NS(=O)(=O)c1ccc(C)cc1)P(=O)(OCC)OCC (stereo not shown) [Compound 12b]

>  <endpoint.value>
147 to 149 °C

$$$$

Reported melting point for C[C@@]1(Oc2ccccc2)N[C@H]1P(=O)(c1ccccc1)c1ccccc1 (relative stereo) [Compound 10a] was 124 to 126 °C

Lookup result for CCC(OC)(OC)C(N)P(=O)(c1ccccc1)c1ccccc1 (stereo not shown) [Compound 4b] ; measured melting point: 96 to 97 °C

// recorded melting point for C=C(Oc1ccccc1)C(NS(=O)(=O)c1ccc(C)cc1)P(=O)(OCC)OCC (stereo not shown) [Compound 12a] : 117 to 119 °C

----------
test system: human cancer cell line A549 (carcinomic human alveolar basal epithelial cells); experiment: Cytotoxicity (antiproliferative) CCK-8 assay, A549; details: read-out: Cytotoxicity IC50 Lung A549; CCK-8, 48 h incubation; concentration corresponding to 50% growth inhibition
assay.metric: IC50 (µM)
Please reply with the bare figure in µM and do not write the unit itself.

Solved entries (count: 2):
>  <compound>
CCOP(=O)(OCC)C(N)C(C)(OC)OC (stereo not drawn) [Compound 4f]

>  <IC50 [µM]>
1.3

$$$$
>  <compound>
C=C(Sc1ccccc1)C(N)P(=O)(OCC)OCC (stereo not drawn) [Compound 15e]

>  <IC50 [µM]>
7.2

$$$$

Let us examine a further case.
Per the record, COC(C)(OC)C(N)P(=O)(OC(C)C)OC(C)C (stereo not drawn) [Compound 4e] has IC50 of 4.6

----------
Below, each entry is listed with its recorded pIC50.
assay: in vitro; settings: human
# pIC50 = -log10(concentration in molar units)

>  <compound>
C=C(Sc1ccccc1)C(NS(=O)(=O)c1ccc(C)cc1)P(=O)(OCC)OCC (stereo not shown) [Compound 16c]

>  <endpoint.value>
4.62

$$$$

Here is another compound to look at.
Given item C=C(Oc1ccc2ccccc2c1)C(NS(=O)(=O)c1ccc(C)cc1)P(=O)(OCC)OCC (stereo not shown) [Compound 12b] , the value recorded as its pIC50 is 4.76
